experiment: in vivo; design: species or system mice; settings: mouse, iv, 5 mg/kg
assayMetric: Cmax (nM)

INSERT INTO measurements (structurestring, measured) VALUES
  ('Nc1nc(COC(=O)c2ccc([N+](=O)[O-])cc2)nc(Nc2ccccc2)n1', 409);

###

assay: in vivo; set-up: species or system mice; conditions: mouse, iv, 5 mg/kg
assayMetric: Tmax

INSERT INTO results (structurestring, assaymetric, measured) VALUES
  ('Nc1nc(COC(=O)c2ccc([N+](=O)[O-])cc2)nc(Nc2ccccc2)n1', 'Tmax', '~5 min');

This collection of values is drawn from patent US10588985B2.
